Target: recombinant guanylate cyclase reporter cell line (Rattus norvegicus, UniProt P19686+P20595)
Construct: expressed in transfected cells
Assay: Effect on a recombinant guanylate cyclase reporter cell line
Assay type: cell-based
Settings: MEC = minimum effective concentration; in some cases means of individual determinations
Reported Property: MEC (µM)

Field: example entries. Status: answers known.
1. CN(C(=O)c1nc(-c2nn(Cc3ccccc3F)c3cc(Cl)ccc23)nc2c1C(C)(C)C(=O)N2)C1CC1 :: 0.03
2. CC1(C)C(=O)Nc2nc(-c3nn(Cc4ccccc4F)c4ncccc34)nc(C(=O)NC3CCOC3=O)c21 (racemic) :: 0.3
3. CCC(C)NC(=O)c1nc(-c2nn(Cc3ccccc3F)c3ncccc23)nc2c1C(C)(C)C(=O)N2 (racemic) :: 0.1
4. CC1(C)C(=O)Nc2nc(-c3nn(Cc4ccccc4F)c4ncc(F)cc34)nc(C(=O)NCC3CC3)c21 :: 0.1
5. Cc1ccncc1NC(=O)c1nc(-c2nn(Cc3ccccc3F)c3ncccc23)nc2c1C(C)(C)C(=O)N2 :: 0.3
6. CC1(CNC(=O)c2nc(-c3nn(Cc4ccccc4F)c4ncccc34)nc3c2C(C)(C)C(=O)N3)COC1 :: 0.3

P. Cc1nc2c(cc1F)c(-c1nc3c(c(C(=O)NCC(C)(N)CC(F)F)n1)C(C)(C)C(=O)N3)nn2Cc1cccc(F)c1F (single isomer, unassigned) [Example 57]
Q. CC1(C)C(=O)Nc2nc(-c3nn(Cc4ccccc4F)c4ncccc34)nc(C(=O)Nc3nncs3)c21
R. CC1(C)C(=O)Nc2nc(-c3nn(Cc4ncccc4F)c4ncc(F)cc34)nc(C(N)=O)c21
S. COCCNC(=O)c1nc(-c2nn(Cc3ncccc3F)c3ncc(F)cc23)nc2c1C(C)(C)C(=O)N2
Kindly order the items shown according to MEC, from the highest value down. Reply format: the labels, ordered as requested.
S, R, P, Q
(S: 3 µM, R: 2 µM, P: 1 µM, Q: 0.1 µM)

a. CC1(C)C(=O)Nc2nc(-c3nn(Cc4ccccc4F)c4ncccc34)nc(C(=O)NC3CCOC3)c21 (racemic)
b. COCCCNC(=O)c1nc(-c2nn(Cc3ccccc3F)c3ncccc23)nc2c1C(C)(C)C(=O)N2
Form: Entry with minimum MEC (choose one): a / b // respond with label for picked entry
b

---

Biological target: recombinant guanylate cyclase reporter cell line (Rattus norvegicus, UniProt P19686+P20595)
Construct: expressed in transfected cells
Assay: Effect on a recombinant guanylate cyclase reporter cell line
Type: cell-based
Settings: MEC = minimum effective concentration; in some cases means of individual determinations
Reported Property: MEC (µM)

1) Cc1cnccc1NC(=O)c1nc(-c2nn(Cc3ccccc3F)c3ncccc23)nc2c1C(C)(C)C(=O)N2 [Example 101] :: 0.3
2) CC1(C)C(=O)Nc2nc(-c3nn(Cc4ccccc4F)c4ncccc34)nc(C(=O)NCc3ccccc3)c21 [Example 115] :: 0.1
3) Cc1nc2c(cc1F)c(-c1nc3c(c(C(N)=O)n1)C(C)(C)C(=O)N3)nn2Cc1ncccc1F [Example 7] :: 3
4) CN(CC1CC1)C(=O)c1nc(-c2nn(Cc3ccccc3F)c3ncc(F)cc23)nc2c1C(C)(C)C(=O)N2 [Example 53] :: 0.01
5) CN(CC1CC1)C(=O)c1nc(-c2nn(Cc3ncccc3F)c3ncc(F)cc23)nc2c1C(C)(C)C(=O)N2 [Example 33] :: 0.1

P. CONC(=O)c1nc(-c2nn(Cc3ccccc3F)c3ncccc23)nc2c1C(C)(C)C(=O)N2 [Example 79]
Q. CC1(C(F)(F)F)C(=O)Nc2nc(-c3nn(Cc4ncccc4F)c4ncc(F)cc34)nc(C(N)=O)c21 (single isomer, unassigned; ent-2) [Example 22]
Consider P and Q . Which of these has its MEC at a higher number? // respond with label for picked entry
Q
(Q: 2 µM, P: 0.1 µM)

a. Cc1nc2c(cc1F)c(-c1nc3c(c(C(N)=O)n1)C(C)(C(F)(F)F)C(=O)N3)nn2Cc1cccc(F)c1F (single isomer, unassigned; ent-2) [Example 11]
b. CC1(C)C(=O)Nc2nc(-c3nn(Cc4ccccc4F)c4ncccc34)nc(C(=O)NCCC(N)=O)c21 [Example 95]
Consider a and b . Which of these has its MEC at a higher number? // respond with label for picked entry
b
(b: 1 µM, a: 0.1 µM)

---

Target: recombinant guanylate cyclase reporter cell line (Rattus norvegicus, UniProt P19686+P20595)
Construct: expressed in transfected cells
Sequence (P19686 1-690): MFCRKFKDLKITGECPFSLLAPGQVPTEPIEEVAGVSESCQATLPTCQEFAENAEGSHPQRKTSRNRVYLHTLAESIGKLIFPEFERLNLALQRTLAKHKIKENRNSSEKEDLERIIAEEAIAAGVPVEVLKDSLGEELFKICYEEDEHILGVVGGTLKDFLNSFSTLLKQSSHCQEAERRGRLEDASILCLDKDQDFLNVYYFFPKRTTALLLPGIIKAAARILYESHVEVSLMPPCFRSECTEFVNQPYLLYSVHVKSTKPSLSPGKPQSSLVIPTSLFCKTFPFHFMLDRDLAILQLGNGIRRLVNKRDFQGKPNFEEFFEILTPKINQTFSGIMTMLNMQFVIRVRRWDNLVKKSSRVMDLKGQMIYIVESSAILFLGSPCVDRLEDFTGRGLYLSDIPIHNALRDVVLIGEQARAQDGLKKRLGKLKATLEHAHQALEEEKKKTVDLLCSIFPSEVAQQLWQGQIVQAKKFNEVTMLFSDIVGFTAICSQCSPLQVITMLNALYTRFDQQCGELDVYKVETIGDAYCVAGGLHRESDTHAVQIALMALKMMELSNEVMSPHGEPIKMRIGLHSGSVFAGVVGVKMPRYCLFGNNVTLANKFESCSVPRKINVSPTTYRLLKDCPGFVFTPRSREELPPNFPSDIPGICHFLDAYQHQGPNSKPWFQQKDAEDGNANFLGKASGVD
Sequence (P20595 1-619): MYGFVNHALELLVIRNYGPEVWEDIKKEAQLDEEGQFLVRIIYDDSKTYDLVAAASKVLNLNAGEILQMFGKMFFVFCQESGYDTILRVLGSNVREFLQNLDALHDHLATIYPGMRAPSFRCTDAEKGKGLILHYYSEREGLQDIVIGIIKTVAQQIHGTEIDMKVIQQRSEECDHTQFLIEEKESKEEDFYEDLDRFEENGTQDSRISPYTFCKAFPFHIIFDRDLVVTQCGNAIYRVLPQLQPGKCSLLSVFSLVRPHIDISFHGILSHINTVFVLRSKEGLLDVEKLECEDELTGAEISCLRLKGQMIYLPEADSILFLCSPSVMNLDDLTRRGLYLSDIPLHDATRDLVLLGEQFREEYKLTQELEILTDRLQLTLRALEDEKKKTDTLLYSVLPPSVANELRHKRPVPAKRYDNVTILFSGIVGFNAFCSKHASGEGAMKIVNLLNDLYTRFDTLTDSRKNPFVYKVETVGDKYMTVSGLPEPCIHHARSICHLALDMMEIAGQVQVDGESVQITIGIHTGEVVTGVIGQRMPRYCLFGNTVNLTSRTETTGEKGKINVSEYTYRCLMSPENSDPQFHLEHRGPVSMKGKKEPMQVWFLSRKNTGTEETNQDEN
Assay: Effect on a recombinant guanylate cyclase reporter cell line
Type: cell-based
Conditions: MEC = minimum effective concentration; in some cases means of individual determinations
Reported Property: MEC (µM)

1. CN(C(=O)c1nc(-c2nn(Cc3ccccc3F)c3ncc(F)cc23)nc2c1C(C)(C)C(=O)N2)C1CC1 [Example 52] :: 0.01
2. Cn1cnc(NC(=O)c2nc(-c3nn(Cc4ccccc4F)c4ncccc34)nc3c2C(C)(C)C(=O)N3)n1 [Example 109] :: 0.3
3. CN(CC1CC1)C(=O)c1nc(-c2nn(Cc3ccccc3F)c3cc(Cl)ccc23)nc2c1C(C)(C)C(=O)N2 [Example 47] :: 0.03
4. Cc1nc2c(cc1F)c(-c1nc3c(c(C(N)=O)n1)C(C)(C(F)(F)F)C(=O)N3)nn2Cc1c(F)ccc(F)c1F (racemic) [Example 15] :: 0.2
5. CC(C)(O)CNC(=O)c1nc(-c2nn(Cc3ccccc3F)c3ncc(F)cc23)nc2c1C(C)(C)C(=O)N2 [Example 29] :: 0.3

1. C[S+]([O-])CCNC(=O)c1nc(-c2nn(Cc3ccccc3F)c3ncccc23)nc2c1C(C)(C)C(=O)N2 (stereo not shown) [Example 64]
2. Cc1nc2c(cc1F)c(-c1nc3c(c(C(N)=O)n1)C(C)(C(F)(F)F)C(=O)N3)nn2Cc1ccccc1F (single isomer, unassigned; ent-2) [Example 13]
3. CC1(C)C(=O)Nc2nc(-c3nn(Cc4ccccc4F)c4ncccc34)nc(C(=O)NCC(N)=O)c21 [Example 75]
Kindly order the items shown according to MEC, from the highest value down. Reply format: the labels, ordered as requested.
1, 3, 2

A. CC1(C)C(=O)Nc2nc(-c3nn(Cc4ccccc4F)c4ncc(F)cc34)nc(C(=O)NCC(F)(F)F)c21 [Example 50]
B. CC1(NC(=O)c2nc(-c3nn(Cc4ccccc4F)c4ncccc34)nc3c2C(C)(C)C(=O)N3)CCC1 [Example 97]
C. CN(CC1CC1)C(=O)c1nc(-c2nn(Cc3ccccc3F)c3ncccc23)nc2c1C(C)(C)C(=O)N2 [Example 111]
Ascending by MEC, please. Reply format: the labels, ordered as requested.
C, A, B
(C: 0.01 µM, A: 0.1 µM, B: 0.3 µM)

P. CC1(C)C(=O)Nc2nc(-c3nn(Cc4ccccc4F)c4ncccc34)nc(C(=O)NCC3CCCO3)c21 (racemic) [Example 130]
Q. CC(CC1CC1)NC(=O)c1nc(-c2nn(Cc3ccccc3F)c3ncccc23)nc2c1C(C)(C)C(=O)N2 (racemic) [Example 68]
Form: Entry with minimum MEC (choose one): P / Q // respond with label for picked entry
Q
(Q: 0.1 µM, P: 0.3 µM)

Source of measurements: patent US20170233413A1
